Procedure details: Single-dose PK under fasted conditions in healthy adult subjects
Type: in vivo, human
Test conditions: human, plasma, oral, 150 mg single dose
Measured metric: AUC(0-t) (ng·h/mL)

> print(dat)
                                        mol  unit.info  obs.value
1  COc1ccc(C(=O)NC2(C(=O)O)Cc3ccccc3C2)cc1OCCc1cccc(C)c1    ng·h/mL      83800

====

Procedure details: Multiple-dose (BID) PK at steady state with meals in healthy adult subjects
Type: in vivo, human
Test conditions: human, plasma, oral; 450 mg BID, Low-fat meal, median
Measured metric: half-life

> print(dat)
                                   molecule  obs.value
1  COc1ccc(C(=O)NC2(C(=O)O)Cc3ccccc3C2)cc1OCCc1cccc(C)c1 [Compound I]     27.7 h

====

Procedure details: Food effect on PK at 450 mg single dose in healthy adult subjects
Format: in vivo, human
Test conditions: human, plasma, oral, Fasted, read-out: AUC0-last, Geometric LSM
Measured metric: AUC(0-t) (µg·h/mL)

> print(dat)
                                        mol  obs.value
1  COc1ccc(C(=O)NC2(C(=O)O)Cc3ccccc3C2)cc1OCCc1cccc(C)c1        116

====

Procedure details: Single-dose PK under fasted conditions in healthy adult subjects
Format: in vivo, human
Test conditions: human, plasma, oral, 150 mg single dose
Measured metric: AUC(0-inf) (ng·h/mL)

> print(dat)
                                        mol  obs.value
1  COc1ccc(C(=O)NC2(C(=O)O)Cc3ccccc3C2)cc1OCCc1cccc(C)c1      85200

====

Procedure details: Single-dose PK under fasted conditions in healthy adult subjects
Type: in vivo, human
Test conditions: human, plasma, oral, 150 mg single dose
Measured metric: half-life (h)

> print(dat)
                                        mol  obs.value
1  COc1ccc(C(=O)NC2(C(=O)O)Cc3ccccc3C2)cc1OCCc1cccc(C)c1       21.8

====

Procedure details: Single-dose PK under fasted conditions in healthy adult subjects
Format: in vivo, human
Test conditions: human, plasma, oral, 150 mg single dose
Measured metric: Cmax

> print(dat)
                                        mol  measured.metric    obs.value
1  COc1ccc(C(=O)NC2(C(=O)O)Cc3ccccc3C2)cc1OCCc1cccc(C)c1             Cmax  11100 ng/mL

====

Procedure details: Single-dose PK under fasted conditions in healthy adult subjects
Type: in vivo, human
Test conditions: human, plasma, oral, 300 mg single dose
Protocol: The PK of Compound I and food effect were evaluated in an open-label study in healthy volunteers to inform the dose and dosing condition of the tablet formulations used in the clinical studies. Dose proportionality and food effect were evaluated using a 2-way, 2-period crossover design in two cohorts:150 mg and 300 mg single dose under fasting condition in Cohort 1 and 450 mg single dose under fasting and high-fat, high calorie meal condition in Cohort 2. […]
Measured metric: AUC(0-inf) (µg·h/mL)

> print(dat)
                                   compound  obs.value
1  COc1ccc(C(=O)NC2(C(=O)O)Cc3ccccc3C2)cc1OCCc1cccc(C)c1 [Compound I]        120

====

Procedure details: Food effect on PK at 450 mg single dose in healthy adult subjects
Assay type: in vivo, human
Test conditions: human, plasma, oral, Fasted, read-out: AUC0-inf, Geometric LSM
Measured metric: AUC(0-inf) (µg·h/mL)

> print(dat)
                                        mol  obs.value
1  COc1ccc(C(=O)NC2(C(=O)O)Cc3ccccc3C2)cc1OCCc1cccc(C)c1        117

====

Procedure details: Solubility of the different polymorphs in phosphate buffer
Assay type: physicochemical
Test conditions: pH 7.4 phosphate buffer, 25° C., 2 hr
Below is a list of entries, each paired with its recorded solubility, concentration versus time value.
Measured metric: solubility, concentration versus time (µg/mL)

> print(dat)
                                   molecule                        measured.metric  obs.value
1  COc1ccc(C(=O)NC2(C(=O)O)Cc3ccccc3C2)cc1OCCc1cccc(C)c1 [Form 1]  solubility, concentration versus time         41
2  COc1ccc(C(=O)NC2(C(=O)O)Cc3ccccc3C2)cc1OCCc1cccc(C)c1 [Form 4]  solubility, concentration versus time         89
3  COc1ccc(C(=O)NC2(C(=O)O)Cc3ccccc3C2)cc1OCCc1cccc(C)c1 [Form 2]  solubility, concentration versus time         39
4  COc1ccc(C(=O)NC2(C(=O)O)Cc3ccccc3C2)cc1OCCc1cccc(C)c1 [Form 3]  solubility, concentration versus time         93

====

Procedure details: Single-dose PK under fasted conditions in healthy adult subjects
Format: in vivo, human
Test conditions: human, plasma, oral, 300 mg single dose
Measured metric: AUC(0-t)

> print(dat)
                                        mol  measured.metric    obs.value
1  COc1ccc(C(=O)NC2(C(=O)O)Cc3ccccc3C2)cc1OCCc1cccc(C)c1         AUC(0-t)  118 µg·h/mL

====

Procedure details: Multiple-dose (BID) PK at steady state with meals in healthy adult subjects
Format: in vivo, human
Test conditions: human, plasma, oral; 300 mg BID, Low-fat meal, median
Measured metric: half-life (h)

> print(dat)
                                        mol  measured.metric  obs.value
1  COc1ccc(C(=O)NC2(C(=O)O)Cc3ccccc3C2)cc1OCCc1cccc(C)c1        half-life       24.6

====

Procedure details: Solubility of the different polymorphs in phosphate buffer
Assay type: physicochemical
Test conditions: pH 7.4 phosphate buffer, 25° C., 3 hr
Description: The solubility of the different polymorphs was determined at pH 7.4 in phosphate buffer at 25° C. Samples were analyzed as a function of time for each form to determine the equilibrium values. The residual solids from each sample were analyzed to verify that the form was unchanged during the experiment. The concentration (mg/mL) versus time data is listed below for each form: […]
Measured metric: solubility, concentration versus time (µg/mL)

> print(dat)
                                   molecule  obs.value
1  COc1ccc(C(=O)NC2(C(=O)O)Cc3ccccc3C2)cc1OCCc1cccc(C)c1 [Form 1]         42
2  COc1ccc(C(=O)NC2(C(=O)O)Cc3ccccc3C2)cc1OCCc1cccc(C)c1 [Form 4]        105
3  COc1ccc(C(=O)NC2(C(=O)O)Cc3ccccc3C2)cc1OCCc1cccc(C)c1 [Form 3]         95
4  COc1ccc(C(=O)NC2(C(=O)O)Cc3ccccc3C2)cc1OCCc1cccc(C)c1 [Form 2]         43

====

Procedure details: Food effect on PK at 450 mg single dose in healthy adult subjects
Format: in vivo, human
Test conditions: human, plasma, oral, Fed (high-fat, high-calorie meal), read-out: Cmax, Geometric LSM
Measured metric: Cmax (ng/mL)

> print(dat)
                                        mol  measured.metric  obs.value
1  COc1ccc(C(=O)NC2(C(=O)O)Cc3ccccc3C2)cc1OCCc1cccc(C)c1             Cmax      26700

====

Procedure details: Single-dose PK under fasted conditions in healthy adult subjects
Assay type: in vivo, human
Test conditions: human, plasma, oral, 300 mg single dose
Measured metric: Tmax (h)

> print(dat)
                                        mol  measured.metric  unit.info  obs.value
1  COc1ccc(C(=O)NC2(C(=O)O)Cc3ccccc3C2)cc1OCCc1cccc(C)c1             Tmax          h          4

====

Procedure details: Multiple-dose (BID) PK at steady state with meals in healthy adult subjects
Format: in vivo, human
Test conditions: human, plasma, oral, 450 mg, 450 mg BID, High-fat high calorie meal, steady state, mean (% CV)
Measured metric: Cmax

> print(dat)
                                        mol    obs.value
1  COc1ccc(C(=O)NC2(C(=O)O)Cc3ccccc3C2)cc1OCCc1cccc(C)c1  25800 ng/mL

====

Procedure details: Food effect on PK at 450 mg single dose in healthy adult subjects
Format: in vivo, human
Test conditions: human, plasma, oral, Fasted, read-out: Cmax, Geometric LSM
Measured metric: Cmax (ng/mL)

> print(dat)
                                        mol  unit.info  obs.value
1  COc1ccc(C(=O)NC2(C(=O)O)Cc3ccccc3C2)cc1OCCc1cccc(C)c1      ng/mL      14000
